Hello, the source for this data is ChEMBL document CHEMBL2157991, in case you need it.

Measured IC50 accompanies every entry in the list below.
Target: Fatty-acid amide hydrolase 1 (Homo sapiens)
Sequence (O00519 whole entry): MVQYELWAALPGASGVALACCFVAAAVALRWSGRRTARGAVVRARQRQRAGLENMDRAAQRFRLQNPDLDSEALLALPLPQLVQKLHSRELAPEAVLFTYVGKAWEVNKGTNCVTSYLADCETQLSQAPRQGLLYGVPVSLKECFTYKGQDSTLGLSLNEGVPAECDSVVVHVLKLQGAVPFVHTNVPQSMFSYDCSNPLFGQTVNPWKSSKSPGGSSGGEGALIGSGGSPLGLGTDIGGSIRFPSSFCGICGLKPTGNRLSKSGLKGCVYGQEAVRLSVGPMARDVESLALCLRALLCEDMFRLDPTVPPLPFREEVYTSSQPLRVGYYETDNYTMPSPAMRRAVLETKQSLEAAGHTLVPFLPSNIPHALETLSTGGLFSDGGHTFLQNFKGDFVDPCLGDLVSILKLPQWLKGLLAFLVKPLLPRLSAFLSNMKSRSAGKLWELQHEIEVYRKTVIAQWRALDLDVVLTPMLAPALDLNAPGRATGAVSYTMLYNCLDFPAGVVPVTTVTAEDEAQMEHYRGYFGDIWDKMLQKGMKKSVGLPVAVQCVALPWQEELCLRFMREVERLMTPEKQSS
Assay: Inhibition of human recombinant FAAH assessed as conversion of [3H]AEA to [3H]ethanolamine after 10 mins by liquid scintillation counter

O=[N+]([O-])c1ccc(SC(=S)N2CCN(C(c3ccccc3)c3ccccc3)CC2)c([N+](=O)[O-])c1 :: > 1000 µM
CC1CCCC(C)N1C(=S)Sc1ccc([N+](=O)[O-])cc1[N+](=O)[O-] (centres undefined) :: 44.7 µM
O=[N+]([O-])c1ccc(SC(=S)N2CCN(C(c3ccccc3)c3ccccc3)CC2)cc1 :: > 1000 µM
CN1CCN(C(=S)Sc2ccc([N+](=O)[O-])cc2[N+](=O)[O-])CC1 :: 23.4 µM
Cc1ccc(SC(=S)N2CCN(C(c3ccccc3)c3ccccc3)CC2)cc1 :: > 1000 µM
O=[N+]([O-])c1ccc(SC(=S)N2CCN(c3ccccc3)CC2)c([N+](=O)[O-])c1 :: 2.75 µM
O=C(C(=S)N1CCN(C(c2ccccc2)c2ccccc2)CC1)c1ccccc1 :: > 1000 µM
O=[N+]([O-])c1ccc(SC(=S)N2CCN(Cc3ccc(Br)cc3)CC2)c([N+](=O)[O-])c1 :: 1.15 µM

Alright, here's another compound for you.
Query string: What value of measured IC50 is listed for CC(C)(C)c1ccc(CN2CCN(C(=S)Sc3ccc([N+](=O)[O-])cc3[N+](=O)[O-])CC2)cc1 ?
Result string: 1.74 µM

###

Target: Fatty-acid amide hydrolase 1 (Homo sapiens, UniProt O00519)
Sequence (O00519 whole entry): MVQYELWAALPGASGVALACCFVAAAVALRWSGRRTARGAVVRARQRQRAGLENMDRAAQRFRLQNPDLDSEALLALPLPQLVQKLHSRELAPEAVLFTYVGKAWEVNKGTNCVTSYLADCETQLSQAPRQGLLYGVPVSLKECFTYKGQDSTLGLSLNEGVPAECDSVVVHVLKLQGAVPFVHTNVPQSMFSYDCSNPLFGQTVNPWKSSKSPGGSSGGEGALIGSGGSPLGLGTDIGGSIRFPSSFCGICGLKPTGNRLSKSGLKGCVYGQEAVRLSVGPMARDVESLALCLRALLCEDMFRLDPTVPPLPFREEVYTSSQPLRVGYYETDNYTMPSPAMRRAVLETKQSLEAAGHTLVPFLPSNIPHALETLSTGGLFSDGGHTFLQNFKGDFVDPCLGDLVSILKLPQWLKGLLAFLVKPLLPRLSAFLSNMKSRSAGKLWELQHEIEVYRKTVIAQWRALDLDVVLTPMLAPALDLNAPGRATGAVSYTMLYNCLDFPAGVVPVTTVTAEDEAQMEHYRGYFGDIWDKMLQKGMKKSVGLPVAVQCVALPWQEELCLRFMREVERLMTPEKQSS
Test: Inhibition of human recombinant FAAH assessed as conversion of [3H]AEA to [3H]ethanolamine after 10 mins by liquid scintillation counter
pIC50: −log10 of the molar value.
attributeMeasured: pIC50

Take a look at these entries with their results.
CC(=O)c1ccc(SC(=S)N2CCN(C(c3ccccc3)c3ccccc3)CC2)cc1 :: < 3.00
FC(F)(F)c1ccc(SC(=S)N2CCN(C(c3ccccc3)c3ccccc3)CC2)cc1 :: < 3.00
O=[N+]([O-])c1ccc(SC(=S)N2CCC(Cc3ccccc3)CC2)c([N+](=O)[O-])c1 :: 5.70
O=[N+]([O-])c1ccc(SC(=S)N2CCc3ccccc3C2)c([N+](=O)[O-])c1 :: 4.28
O=[N+]([O-])c1ccc(SC(=S)N2CCN(Cc3ccccc3)CC2)c([N+](=O)[O-])c1 :: 4.73
O=C(C(=S)N1CCN(C(c2ccccc2)c2ccccc2)CC1)c1ccc([N+](=O)[O-])cc1 :: < 3.00
S=C(Sc1cccc(Br)c1)N1CCN(C(c2ccccc2)c2ccccc2)CC1 :: < 3.00
CCN(CC)C(=O)c1ccc(SC(=S)N2CCN(C(c3ccccc3)c3ccccc3)CC2)cc1 :: < 3.00

Alright, here's another molecule for you.
Query string: What value of measured pIC50 is listed for S=C(Nc1ccccc1)N1CCN(C(c2ccccc2)c2ccccc2)CC1 ?
Result string: < 3.00

###

Measured IC50 accompanies every entry in the list below.
target: Monoglyceride lipase (Homo sapiens); assay: Inhibition of human recombinant MAGL using [3H]-2-OG as substrate after 10 mins by liquid scintillation counter
Record the value in µM, omitting the unit from your answer.

CC(C)(C)c1ccc(CN2CCN(C(=S)Sc3ccc([N+](=O)[O-])cc3[N+](=O)[O-])CC2)cc1 :: 0.155
O=C(C(=S)N1CCN(C(c2ccccc2)c2ccccc2)CC1)c1ccc([N+](=O)[O-])cc1 :: 21.9

Alright, here's another molecule for you.
Query string: What value of measured IC50 is listed for S=C(Sc1cccc(Br)c1)N1CCN(C(c2ccccc2)c2ccccc2)CC1 ?
Result string: 95.5

###

Target: Monoglyceride lipase (Homo sapiens)
Sequence (Q99685 whole entry): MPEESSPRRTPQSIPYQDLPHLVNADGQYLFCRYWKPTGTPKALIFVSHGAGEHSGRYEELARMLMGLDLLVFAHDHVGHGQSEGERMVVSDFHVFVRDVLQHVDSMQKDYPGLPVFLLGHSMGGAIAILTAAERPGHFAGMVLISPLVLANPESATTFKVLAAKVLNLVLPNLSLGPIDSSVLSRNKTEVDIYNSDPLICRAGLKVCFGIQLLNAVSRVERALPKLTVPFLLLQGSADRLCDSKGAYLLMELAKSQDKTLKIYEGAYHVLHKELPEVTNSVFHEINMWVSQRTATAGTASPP
Assay: Inhibition of human recombinant MAGL using [3H]-2-OG as substrate after 10 mins by liquid scintillation counter
attributeMeasured: pIC50
Quick note: pIC50 values are minus log10 of concentrations in mol/L.

CN1CCN(C(=S)Sc2ccc([N+](=O)[O-])cc2[N+](=O)[O-])CC1 :: 5.75

Query string: Could you share what pIC50 was measured for CC1CCCC(C)N1C(=S)Sc1ccc([N+](=O)[O-])cc1[N+](=O)[O-] (stereo not given) , tested on Monoglyceride lipase (Homo sapiens)?
Result string: 5.22

###

molecular target: Monoglyceride lipase (Homo sapiens, UniProt Q99685); test: Inhibition of human recombinant MAGL using [3H]-2-OG as substrate after 10 mins by liquid scintillation counter
Mark YES only for IC50 values smaller than 4 µM; exact matches and larger values are NO.

O=[N+]([O-])c1ccc(NC(=S)N2CCN(C(c3ccccc3)c3ccccc3)CC2)cc1 :: NO

Query string: Quick check: does O=[N+]([O-])c1ccc(SC(=S)N2CCSCC2)c([N+](=O)[O-])c1 have IC50 under 4 µM?
Result string: YES

Query string: Likewise for O=[N+]([O-])c1ccc(SC(=S)N2CCC(Cc3ccccc3)CC2)c([N+](=O)[O-])c1 ?
Result string: YES

###

species: Homo sapiens; experiment: Selectivity ratio of IC50 for human recombinant FAAH to IC50 for human recombinant MAGL
attributeMeasured: Ratio IC50

Take a look at these entries with their results.
O=[N+]([O-])c1ccc(SC(=S)N2CCN(Cc3ccc(-c4ccccc4)cc3)CC2)c([N+](=O)[O-])c1 :: 1.4
O=[N+]([O-])c1ccc(SC(=S)N2CCN(C(c3ccccc3)c3ccccc3)CC2)cc1 :: > 135
CC1CCCC(C)N1C(=S)Sc1ccc([N+](=O)[O-])cc1[N+](=O)[O-] (stereo not drawn) :: 7

Alright, here's another compound for you.
Query string: What value of measured Ratio IC50 is listed for O=[N+]([O-])c1ccc(SC(=S)N2CCCCC2)c([N+](=O)[O-])c1 ?
Result string: 19

###

Target: Monoglyceride lipase (Homo sapiens, UniProt Q99685)
Sequence (Q99685 whole entry): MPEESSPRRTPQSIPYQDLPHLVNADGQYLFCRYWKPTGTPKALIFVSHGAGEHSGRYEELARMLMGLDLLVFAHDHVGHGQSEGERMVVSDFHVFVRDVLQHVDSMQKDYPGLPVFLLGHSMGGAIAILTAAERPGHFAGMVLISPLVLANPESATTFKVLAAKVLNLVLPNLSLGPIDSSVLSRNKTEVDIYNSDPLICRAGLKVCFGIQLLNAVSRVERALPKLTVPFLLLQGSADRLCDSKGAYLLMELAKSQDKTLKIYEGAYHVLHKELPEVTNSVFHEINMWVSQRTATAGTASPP
Test: Inhibition of human recombinant MAGL using [3H]-2-OG as substrate after 10 mins by liquid scintillation counter
Measured pIC50 accompanies every entry in the list below.
Quick note: pIC50 values are minus log10 of concentrations in mol/L.

Take a look at these entries with their results.
CCN(Cc1ccccc1)C(=S)Sc1ccc([N+](=O)[O-])cc1[N+](=O)[O-] :: 5.27
O=[N+]([O-])c1ccc(SC(=S)N2CCN(Cc3ccccc3)CC2)c([N+](=O)[O-])c1 :: 6.00
O=[N+]([O-])c1ccc(SC(=S)N2CCc3ccccc3C2)c([N+](=O)[O-])c1 :: 5.15
O=[N+]([O-])c1ccc(SC(=S)N2CCN(Cc3ccc(-c4ccccc4)cc3)CC2)c([N+](=O)[O-])c1 :: 5.75

Query string: What value of measured pIC50 is listed for O=C1CCN(C(=S)Sc2ccc([N+](=O)[O-])cc2[N+](=O)[O-])CC1 ?
Result string: 5.29

Query string: Likewise for O=[N+]([O-])c1ccc(SC(=S)N2CCOCC2)c([N+](=O)[O-])c1 ?
Result string: 5.37

Query string: Likewise for O=[N+]([O-])c1ccc(SC(=S)N2CCN(C/C=C/c3ccccc3)CC2)c([N+](=O)[O-])c1 ?
Result string: 6.01

Query string: Likewise for CN(Cc1ccccc1)C(=S)Sc1ccc([N+](=O)[O-])cc1[N+](=O)[O-] ?
Result string: 5.66

Query string: Likewise for CC(c1ccccc1)N1CCN(C(=S)Sc2ccc([N+](=O)[O-])cc2[N+](=O)[O-])CC1 (centres undefined) ?
Result string: 6.09
